Data credit: PubChem BioAssay

Please respond with reported composite z-score for every item in the list.
Tested on: wheat germ agglutinin (Triticum aestivum), Alexa647-labelled
Assay: wheat germ agglutinin binders on compound microarrays, profiling panel, artefact control for SMM control-protein annotation, biochemical, small-molecule microarray, 635/667 nm fluorescence (AID 1140);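 further: score merges 667 nm feature emission with signal to noise over triplicate slides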
Conditions: WGA-A647 binding, 635 nm fluorescence, higher = more signal
Just the number, please, no unit attached.

The value of composite z-score measured for the compound CCOC(=O)C1=C[C@@H](C(C)C)N(S(=O)(=O)c2ccc(C)cc2)[C@H]1c1ccc(C(C)C)cc1 turned out to be 0.734

The value of composite z-score measured for the compound O=C1OCC=C[C@H]2OC34C=CCN(c5ccc(Cl)cc5)C(=O)[C@H]3N(CCCCCCO)C(=O)[C@@H]4[C@@H]12 (stereo partly drawn) turned out to be -0.892

The value of composite z-score measured for the compound O=C1OCCC=C[C@H]2OC34C=CCN(Cc5ccccc5)C(=O)[C@H]3N(CCCO)C(=O)[C@@H]4C12 (stereo partly drawn) turned out to be -0.194

====

Please respond with reported composite z-score for every item in the list.
Target: Dihydroorotate dehydrogenase (quinone), mitochondrial (Plasmodium falciparum (isolate 3D7)) (UniProt Q08210)
Sequence (Q08210 whole entry, looked up): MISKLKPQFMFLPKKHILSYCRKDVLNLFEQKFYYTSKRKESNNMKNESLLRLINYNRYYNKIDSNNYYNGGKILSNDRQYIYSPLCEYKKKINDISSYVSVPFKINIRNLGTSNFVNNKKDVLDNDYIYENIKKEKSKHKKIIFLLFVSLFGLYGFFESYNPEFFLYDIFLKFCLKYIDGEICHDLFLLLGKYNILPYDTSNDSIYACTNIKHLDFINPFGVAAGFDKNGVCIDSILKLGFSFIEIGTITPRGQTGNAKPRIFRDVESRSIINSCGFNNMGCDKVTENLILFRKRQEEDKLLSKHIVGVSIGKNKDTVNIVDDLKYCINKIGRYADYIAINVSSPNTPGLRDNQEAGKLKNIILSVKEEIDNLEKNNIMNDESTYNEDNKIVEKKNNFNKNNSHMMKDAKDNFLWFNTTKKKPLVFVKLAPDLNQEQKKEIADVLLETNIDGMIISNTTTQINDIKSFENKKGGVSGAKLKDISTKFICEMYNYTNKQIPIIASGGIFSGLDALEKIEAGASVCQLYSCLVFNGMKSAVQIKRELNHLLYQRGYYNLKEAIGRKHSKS
Assay: PfDHODH enzyme inhibitors, primary screen, biochemical, C-terminal His tag, absorbance 600 nm (AID 1175);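 further: recombinant parasite enzyme with a five histidine tag at its C terminus; test concentration not given here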
Details: DCIP absorbance 600 nm, higher = more signal, called active from +8 up or from −8 down
Just the number, please, no unit attached.

The value of composite z-score measured for the molecule CN1C(=O)C2C(C1=O)C1C=C(CCCO)C2C(c2cccs2)N1C (stereo not drawn) turned out to be -1.36

The value of composite z-score measured for the molecule COC(=O)C(CC#Cc1ccc2c(c1)[C@]1(C(=O)N2)[C@H](c2ccc(OCCO)cc2)N2[C@H](c3ccccc3)[C@H](c3ccccc3)OC(=O)[C@H]2[C@@H]1C(=O)NC[C@H](O)c1ccccc1)C(=O)OC turned out to be 0.676

The value of composite z-score measured for the molecule Cc1ccc(S[C@]2(C(=O)NC3CC3)CC(=O)N(Cc3ccccc3)[C@@H]2c2ccc(CO)cc2)cc1 turned out to be -0.867

====

Assay: basal 3T3-L1 adipocyte mitochondrial potential changes, profiling panel, cell-based, JC-1 fluorescence, 3T3-L1 adipocytes, 24 h, 100 nL compound (AID 1168); further: test concentration not given here
Details: JC-1 mitochondrial fluorescence, higher = more signal, called active from +8 up or from −8 down
Label yes (1) for high-side z-score (at or above -0.1) and no (0) for low-side z-score (below it).

Please tell me: is the compound CCOC(=O)C[C@H]1[C@H](OC(=O)Cc2ccc3c(c2)OCO3)[C@@H](NC(=O)C2CCCCC2)c2cc(OCCCO)ccc2N1C(=O)Cc1ccc(OC)cc1 at or over -0.1 in terms of z-score?
yes (1)

Please tell me: is the compound [N-]=[N+]=NCc1ccccc1[C@@H]1OC(c2ccc(OCCCO)cc2)=N[C@]1(Cc1ccccc1N=[N+]=[N-])C(=O)NCc1ccccc1 at or over -0.1 in terms of z-score?
no (0)

Please tell me: is the compound O=C(OCCF)C1=CCC(c2cccc(Cl)c2)O1 (stereo not drawn) at or over -0.1 in terms of z-score?
yes (1)

Please tell me: is the compound O=C1O[C@H](c2ccccc2)[C@H](c2ccccc2)N2[C@H]1[C@@H](C(=O)O)[C@]1(C(=O)Nc3ccc(C#CC4(O)CCCCCC4)cc31)[C@H]2c1ccc(OCCO)cc1 at or over -0.1 in terms of z-score?
no (0)

Please tell me: is the compound O=C(CS)NCCCCCCNC(=O)[C@@H]1C[C@@H]2C(=O)N3CCC[C@H]3C(=O)N2[C@@H]1c1ccc(O)cc1 at or over -0.1 in terms of z-score?
no (0)

Please tell me: is the compound CS(=O)(=O)CCOC(=O)C1=CC(c2ccc(CO)cc2)=CC(C2CC2)N(Cc2cc3c(cc2Br)OCO3)C=C1C(=O)OCCS(C)(=O)=O (stereo not drawn) at or over -0.1 in terms of z-score?
yes (1)

Please tell me: is the compound COC(=O)[C@@]1(Cc2ccc(F)cc2)[C@H]2c3cc(C(=O)N4CCCC4)n(Cc4cccc5ccccc45)c3C[C@H]2CN1C(=O)c1ccccc1 at or over -0.1 in terms of z-score?
no (0)

Please tell me: is the compound O=C1OCCC=C[C@H]2OC34C=CCN(Cc5ccccc5)C(=O)[C@H]3N(CCCCCCO)C(=O)[C@@H]4C12 (stereo partly drawn) at or over -0.1 in terms of z-score?
yes (1)
